// values below are reported pIC50
Test system: 454973-116-R2-J3-PDC spheroids, viability, % test/control
Assay: Anticancer human tumor 454973-116-R2-J3-PDC patient-derived pancreatic carcinoma cell line growth inhibition [GQUAD]
Settings: curve of first compound; second compound 0.316 µM; spheroids with HUVEC and MSC
Reminder that pIC50 is minus the log10 of a molar concentration.

Example entries and their recorded answers appear below.
# MOLECULE, pIC50
records = [
    ("Cc1[nH]c2ccccc2c1CCNCc1ccc(/C=C/C(=O)NO)cc1 + Cc1[nH]c2ccc(F)cc2c1-c1nc2c3cccnc3c3ncccc3c2[nH]1", 7.11),
    ("CC[C@@]1(O)C(=O)OCc2c1cc1n(c2=O)Cc2cc3c(CN(C)C)c(O)ccc3nc2-1 + CN(C)c1ccc(Nc2c3ccc(NC(=O)CCN4CCCC4)cc3nc3cc(NC(=O)CCN4CCCC4)ccc23)cc1", 7.52),
]

Please turn your attention to the following entry.
Endpoint output: pIC50 of C=CCn1c(=O)c2cnc(Nc3ccc(N4CCN(C)CC4)cc3)nc2n1-c1cccc(C(C)(C)O)n1 + Cc1[nH]c2ccc(F)cc2c1-c1nc2c3cccnc3c3ncccc3c2[nH]1 . Value? 6.40

* * *

Test system: 454973-116-R2-J3-PDC spheroids, viability, % test/control
Assay: Anticancer human tumor 454973-116-R2-J3-PDC cell line growth inhibition [GQUAD];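 further: spheroids exposed to compounds for seven days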;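 on viability, T/C: 100% = DMSO vehicle control viability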
Conditions: second compound 10 µM; first compound 0.316 µM; stronger effect = lower value; spheroids with HUVEC and MSC
Output schema: class label derived from viability, T/C. Mapping: lower segment = under 4%, middle segment = from 4% up to 10%, upper segment = 10% and over

# example entries with known answers
# COMPOUND, CLASS LABEL
rows = [
    ("CC(=O)O[C@H]1C(=O)[C@@]2(C)[C@H]([C@H](OC(=O)c3ccccc3)[C@]3(O)C[C@H](OC(=O)[C@H](O)[C@@H](NC(=O)c4ccccc4)c4ccccc4)C(C)=C1C3(C)C)[C@]1(OC(C)=O)CO[C@@H]1C[C@@H]2O + Cc1[nH]c2ccc(F)cc2c1-c1nc2c3cccnc3c3ncccc3c2[nH]1", "middle segment"),
    ("CCc1c2c(nc3ccc(O)cc13)-c1cc3c(c(=O)n1C2)COC(=O)[C@]3(O)CC + Cc1cnc(CNC(=O)c2c(=O)c3ccc(N4CCCN(C)CC4)nc3n3c2sc2ccccc23)cn1", "lower segment"),
    ("Cc1[nH]c2ccccc2c1CCNCc1ccc(/C=C/C(=O)NO)cc1 + Cc1[nH]c2ccc(F)cc2c1-c1nc2c3cccnc3c3ncccc3c2[nH]1", "upper segment"),
    ("C=CCn1c(=O)c2cnc(Nc3ccc(N4CCN(C)CC4)cc3)nc2n1-c1cccc(C(C)(C)O)n1 + CN(C)c1ccc(Nc2c3ccc(NC(=O)CCN4CCCC4)cc3nc3cc(NC(=O)CCN4CCCC4)ccc23)cc1", "upper segment"),
    ("O=C(NO)c1cnc(N2CCN(S(=O)(=O)c3ccc4ccccc4c3)CC2)nc1 + Cc1cnc(CNC(=O)c2c(=O)c3ccc(N4CCCN(C)CC4)nc3n3c2sc2ccccc23)cn1", "lower segment"),
    ("CC[C@@]1(O)C(=O)OCc2c1cc1n(c2=O)Cc2cc3c(CN(C)C)c(O)ccc3nc2-1 + CN(C)c1ccc(Nc2c3ccc(NC(=O)CCN4CCCC4)cc3nc3cc(NC(=O)CCN4CCCC4)ccc23)cc1", "upper segment"),
    ("CCc1c2c(nc3ccc(O)cc13)-c1cc3c(c(=O)n1C2)COC(=O)[C@]3(O)CC + CN(C)c1ccc(Nc2c3ccc(NC(=O)CCN4CCCC4)cc3nc3cc(NC(=O)CCN4CCCC4)ccc23)cc1", "middle segment"),
    ("CC1COCCN1c1cc(C2(S(C)(=N)=O)CC2)nc(-c2ccnc3[nH]ccc23)n1 (stereo not given) + Cc1cnc(CNC(=O)c2c(=O)c3ccc(N4CCCN(C)CC4)nc3n3c2sc2ccccc23)cn1", "lower segment"),
]

Turning now to a further record.
Form field 'band' for C=CC(=O)N1CCN(c2nc(=O)n(-c3c(C)ccnc3C(C)C)c3nc(-c4c(O)cccc4F)c(F)cc23)C(C)C1 (stereo not given) + CN(C)c1ccc(Nc2c3ccc(NC(=O)CCN4CCCC4)cc3nc3cc(NC(=O)CCN4CCCC4)ccc23)cc1 upper segment
